# assay protocol: Biodistribution in Jurkat tumor-bearing CB-17 SCID mice
# Assay type: in vivo
# experimental conditions: female, CB-17 SCID, mouse, in vivo, iv, total radioactivity, Adrenal; 1 h p.i.; Jurkat xenograft, CB-17 SCID female mice; read-out: % iD/g Adrenal
Positions of bridges follow the written chain, without caps; N, C: chain ends. Non-standard residues stand in square brackets, D forms with d. Residues, ends and D or L forms follow the SMILES beside them. Chains are numbered I, II in the order given. *: point of attachment. 2Nal = N[C@@H](Cc1ccc2ccccc2c1)C(=O)O; dNMeOrn = CN[C@H](CCCN)C(=O)O; Mercaptoacetyl = O=C(CS)*; 4Abz = Nc1ccc(C(=O)O)cc1
metric: tissue uptake at 1 h (%ID/g)
Use %ID/g as the unit, but write only the number.

Ask | Respond only with tissue uptake at 1 h recorded for C[C@@H](NC(=O)[C@@H](CCCNC(=N)N)NC(=O)[C@@H](Cc1c[nH]cn1)NC(=O)[C@@H](CO)NC(=O)[C@@H](CO)NC(=O)[C@@H](CO)NC(=O)CS)C(=O)Nc1ccc(C(=O)NCCC[C@@H]2C(=O)N[C@@H](CCCNC(=N)N)C(=O)N[C@@H](Cc3ccc4ccccc4c3)C(=O)NCC(=O)N[C@H](Cc3ccc(O)cc3)C(=O)N2C)cc1 [Tc-CXCR4-5] (I: Mercaptoacetyl-[dS][dS][dS][dH][dR][dA][4Abz] / II: cyclo([dY][dNMeOrn]R[2Nal]G); amide I:C-II:2)
Reply | 0.42
